SYSTEM UNDER TEST: Recombinant human cathepsin B (Homo sapiens)
Construct: made in house
ASSAY PROTOCOL: Recombinant cathepsin inhibition, gel-based competition with GB123 probe
Assay type: biochemical
MEASUREMENT CONTEXT: Figure 1; gel-based GB123 competition; read-out: Activity [μM] CTSB (IC50)
From the text: In-gel fluorescence analysis was used to detect the residual activity of the cathepsins by applying pan-cathepsin probe GB123 to detect the stable enzyme–probe complex. This approach is used for testing inhibition and selectivity.[37],[41] […]
MEASURED ATTRIBUTE: IC50 (µM)

- STRUCTURE SMILES STRING: "Cc1cccc(C)c1C(=O)OCC(=O)[C@H](CCCCN)NC(=O)[C@@H]1CCCN1C(=O)CNC(=O)OCc1ccccc1"
  NUMERIC RESULT: 1.95

All values here come from paper PMC11938014.
